system: SH-SY5Y; assay: Cytotoxicity against human SH-SY5Y cells assessed as inhibition of cell proliferation incubated for 4 hrs by MTS assay; assay type: functional, cell-based
Where a SMILES comes first, the peptide text is derived from it. [ ]: non-standard residue; d: D form. ξ: configuration not given here. Bip = N[C@@H](Cc1ccc(-c2ccccc2)cc1)C(=O)O; ξBip = NC(Cc1ccc(-c2ccccc2)cc1)C(=O)O; ξDip = NC(C(=O)O)C(c1ccccc1)c1ccccc1
outcome measure: IC50 (µM)
Numbers only, in µM.

NCCCC[C@H](NC(=O)[C@H](Cc1c[nH]c2ccccc12)NC(=O)[C@H](Cc1c[nH]c2ccccc12)NC(=O)[C@H](CCCCN)NC(=O)[C@H](CCCCN)NC(=O)[C@H](Cc1c[nH]c2ccccc12)NC(=O)[C@H](Cc1ccc(-c2ccccc2)cc1)NC(=O)[C@H](CCCCN)NC(=O)[C@@H](N)CCCCN)C(N)=O (H-KK[Bip]WKKWWK-NH2) = 8.8
N=C(N)NCCC[C@H](NC(=O)[C@H](Cc1c[nH]c2ccccc12)NC(=O)[C@H](Cc1c[nH]c2ccccc12)NC(=O)[C@H](CCCNC(=N)N)NC(=O)[C@H](CCCNC(=N)N)NC(=O)C(NC(=O)[C@H](Cc1c[nH]c2ccccc12)NC(=O)[C@H](CCCNC(=N)N)NC(=O)[C@@H](N)CCCNC(=N)N)C(c1ccccc1)c1ccccc1)C(N)=O (stereo not given in full) (H-RRW[ξDip]RRWWR-NH2) = 5.4
NCCCC[C@H](NC(=O)[C@H](Cc1c[nH]c2ccccc12)NC(=O)[C@H](Cc1c[nH]c2ccccc12)NC(=O)[C@H](CCCCN)NC(=O)[C@H](CCCCN)NC(=O)[C@H](Cc1c[nH]c2ccccc12)NC(=O)C(Cc1ccc(-c2ccccc2)cc1)NC(=O)[C@H](CCCCN)NC(=O)[C@@H](N)CCCCN)C(N)=O (stereo not given in full) (H-KK[ξBip]WKKWWK-NH2) = 7.8
NCCCC[C@H](NC(=O)[C@H](Cc1c[nH]c2ccccc12)NC(=O)[C@H](CCCCN)NC(=O)[C@H](CCCCN)NC(=O)C(NC(=O)[C@H](Cc1c[nH]c2ccccc12)NC(=O)[C@H](CCCCN)NC(=O)[C@H](CCCCN)NC(=O)[C@@H](N)Cc1c[nH]c2ccccc12)C(c1ccccc1)c1ccccc1)C(N)=O (stereo not given in full) (H-WKKW[ξDip]KKWK-NH2) = 12.7

Turning to the following molecule.
Problem: Could you tell me which IC50 is on file for NCCCC[C@H](NC(=O)C(NC(=O)[C@H](Cc1c[nH]c2ccccc12)NC(=O)[C@H](CCCCN)NC(=O)[C@H](CCCCN)NC(=O)[C@H](Cc1c[nH]c2ccccc12)NC(=O)[C@H](Cc1c[nH]c2ccccc12)NC(=O)[C@H](CCCCN)NC(=O)[C@@H](N)CCCCN)C(c1ccccc1)c1ccccc1)C(N)=O (stereo not given in full) (H-KKWWKKW[ξDip]K-NH2) ?
Solution: 3.3

src = ChEMBL document CHEMBL5257020
